# Tested on: 786-0 renal
# ASSAY NAME: NCI tumour cell line growth inhibition, 48 h
Reported GI50 values for a set of compounds

Please review the entries below; each comes with its answer.
CC(C)=CCC(OC(=O)C=C(C)C)C1=CC(=O)c2c(O)ccc(O)c2C1=O (stereo not given) = 2.59 µM
CC(C)(C)OC(=O)NCCCn1c2c(c3ccccc3c1=O)C(=O)c1ccccc1-2 = 15.1 µM
O=C(c1ccccc1)c1c(NCC(O)CN2CCOCC2)n(Cc2ccccc2)c(=O)n(Cc2ccccc2)c1=O (stereo not given) = 54.1 µM
O=C([O][Sn]([O]C(=O)c1ccccn1)([c]1ccccc1)[c]1ccccc1)c1ccccn1 = 5.14 µM
O=c1[nH]c2nc(NC3CCOCC3)ncc2cc1Oc1ccc(F)cc1F = > 25 µM
C1=C2CCCC3=Cc4ccccc4OC23Oc2ccccc21 = 6.41 µM
Cn1cc(C2=C(c3cn(C)c4ccc(Cl)cc34)C(=O)NC2=O)c2ccccc21 = 4.03 µM
Cc1ccc(S(=O)(=O)c2nc(-c3ccccc3)oc2S(C)=O)cc1 (stereo not given) = 1.44 µM
S=c1nc(N/N=C/c2ccco2)c2cn[nH]c2[nH]1 = > 100 µM

Now turn to the next compound.
Briefly, GI50 measured for Cn1cc(-c2ccc3nnc(Sc4ccc5ncccc5c4)n3n2)cn1 : > 100 µM
